Origin of values: paper PMC4393779

# System: WT + D313N hDAT (co-expressed)
# Assay type: binding, human
# PARTICULARS: transiently co-transfected 1:1, WT + D313N, observed
OBSERVATION_TYPE: Kd (nM)
Could you give me the number in nM? Just the number is fine.

Name the recorded Kd for COC(=O)[C@H]1[C@@H](c2ccc(F)cc2)C[C@@H]2CC[C@H]1N2C [[^3H]CFT] .
6.42

###

# System: WT + D436N hDAT (mixed cells)
# Format: binding, human
# PARTICULARS: observed upon mixing stable cells in equal volumes
OBSERVATION_TYPE: pKd
On this scale, pKd is minus log10 of a concentration expressed in M (mol/L).

Form entry - test system: WT + D436N hDAT (mixed cells); read-out: pKd; compound: COC(=O)[C@H]1[C@@H](c2ccc(F)cc2)C[C@@H]2CC[C@H]1N2C [[^3H]CFT]
7.59
